growth inhibition by entry:
- assay_text: NCI Yeast Anticancer Drug Screen. Data for the cln2 rad14 strain (AID 165);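 also: 0% = growth equal to vehicle treated cultures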
- condition_details: S. cerevisiae cln2 rad14 strain, at 50.0 µM, hits give high values
Compounds without any hit were thinned out: in the full panel of roughly 79,000, 15% have a hit.
Enter your answer as a number in %; do not include the unit.

{"compound": "CC(C)(Cc1ccccc1)C(=C=C=C=C(c1ccccc1)C(C)(C)Cc1ccccc1)c1ccccc1", "units_text": "%", "result": 5.9}
{"compound": "C1CCCCCc2c(-c3n[nH]c4c3CCCCCCCCCC4)n[nH]c2CCCC1", "units_text": "%", "result": 7.9}
{"compound": "CCCCC(=O)Nc1ccc(S(=O)(=O)O)c(N=NC2C(=O)N(c3ccccc3)N=C2C)c1 (stereo unspecified)", "units_text": "%", "result": -13}
{"compound": "Cc1ccc(S(=O)(=O)C(Sc2ccccc2)=S=NC(C)(C)C)cc1", "units_text": "%", "result": 53.4}

INPUT: Using the record for "Cc1ccccc1S(=O)(=O)NSc1ccccc1[N+](=O)[O-]" , state its measured growth inhibition.
OUTPUT: 1.85

INPUT: Using the record for "COC(=O)C(=NNc1ccccc1[N+](=O)[O-])C(=O)OC" , state its measured growth inhibition.
OUTPUT: 33.8

INPUT: Using the record for "CCCCCCCC(C(=O)O)C(=O)O" , state its measured growth inhibition.
OUTPUT: 10.3

INPUT: Using the record for "Cc1ccc([N+](=O)[O-])cc1NC(=O)N(C)Cc1ccc(Cl)cc1" , state its measured growth inhibition.
OUTPUT: -5.35

INPUT: Using the record for "O=C(O)CNCc1ccc(F)cc1" , state its measured growth inhibition.
OUTPUT: -74.4

INPUT: Using the record for "COc1cc2cc(OC)c3cc4c(cc3c2c(OC)c1OC)OCO4" , state its measured growth inhibition.
OUTPUT: 7.3

INPUT: Using the record for "CC/C(C)=N/NS(C)(=O)=O" , state its measured growth inhibition.
OUTPUT: 2.25

###

- assay_text: NCI Yeast Anticancer Drug Screen. Data for the rad50 strain (AID 155);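 also: 0% = growth of vehicle-only cultures of the same strain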
- condition_details: S. cerevisiae rad50 strain growth inhibition; at 50.0 µM; hits give high values
The panel holds about 79,000 compounds, 15% with a hit somewhere; the sample as a whole holds those more often.
growth inhibition by entry:
Enter your answer as a number in %; do not include the unit.

Sample answers from the record:
{"molecule": "O=C(CCl)OCCN(CCOC(=O)CCl)Cc1coc2ccccc2c1=O", "units_text": "%", "growth inhibition": -4.35}
{"molecule": "CCc1c(C)nc2cc(-c3cc(C)n4c(=O)c(CC)c(C)nc4c3)cc(C)n2c1=O", "units_text": "%", "growth inhibition": 1.6}
{"molecule": "COCC1CCCCC1O (configuration not stated)", "units_text": "%", "growth inhibition": -9.95}
{"molecule": "C=CCOCn1ccc(N)nc1=O", "units_text": "%", "growth inhibition": -3.3}
{"molecule": "Cc1ccc(NC(=O)CCc2nnc3s/c(=C\\c4cccc([N+](=O)[O-])c4)c(=O)n23)cc1", "units_text": "%", "growth inhibition": -31.4}
{"molecule": "Cc1c(C)c(C)c(S(=O)(=O)NCCCNS(=O)(=O)c2c(C)c(C)c(C)c(C)c2C)c(C)c1C", "units_text": "%", "growth inhibition": 3.85}

INPUT: Using the record for "Nc1nc(N)c(N=Nc2ccc(C(=O)O)c(O)c2)c(N)n1" , state its measured growth inhibition.
OUTPUT: 5.5

INPUT: Using the record for "COc1ccc(OC)c2c(NCCNCCO)cc(NCCNCCO)nc12" , state its measured growth inhibition.
OUTPUT: 15.2

Provenance of the data: PubChem BioAssay (NCI)
